Recorded measurements of nonsense suppression, one per entry
B1: tRNA (parent)
chain: CUCUCGGUAGCCAAGUUGGUUUAAGGCGCAAGACUUUAAUUUAUCACUACGAAAUCUUGAGAUCGGGCGUUCGACUCGCCCCCGGGAGAUUUUUUCCUCGAGCAA

Variants of: B1
assay-info: nonsense suppression (GFP-seq) (ratio to wild type); higher = more function; SUP4oc tRNA, yeast GFP reporter sort-seq
Fewer inactive variants are shown than the library holds.

Which nonsense suppression value is on record for CUCUCGGUAGCCAAAUUGGUUUAAGGCGCAAGACUUUAAUUUAUCACUACGAAAUCUUGAGAGCGGGCGUUCGAGUCGCCCCCGGGAGAUUUUUUCCUCGAGCAA ?
≤ 0.026
